Tested on: Human Head and Neck cancer, Fadu
assay_summary: Relative cell viability CCK-8, Fadu
Assay type: cell-based
measurement_parameters: Fadu cells, 50 μM, relative to untreated cells
Measured Relative cell viability (%), listed per entry for reference.
Number in %, nothing else.

* Nc1ncccc1C(=O)NCCCCCCCCCCCCN1CCN(CCO)CC1 | 18.65

Req: Field request: Relative cell viability (%) | item: Cl.Nc1ncccc1C(=O)NCCCCCCCCCCCCN1CC[C@H](N)C1
Resp: 7.05

Req: State the recorded Relative cell viability (%) for this entry: Cc1ccc(OC2CCN(CCCCCCCCCCCCNC(=O)c3cccnc3N)CC2)cc1
Resp: 7.69

Req: Could you tell me which Relative cell viability (%) is on file for CC1(C)CN(CCCCCCCCCCCCC(=O)Nc2nc(N)c3[nH]cnc3n2)CCO1 ?
Resp: 4.78
